All values here come from ChEMBL document CHEMBL1961873.

molecular target: Phosphatidylinositol 4,5-bisphosphate 3-kinase catalytic subunit alpha isoform (Homo sapiens); conditions: at 1 µM;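 note: values are mean percent inhibition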
observed property: inhibition (%)
Express your answer in %, writing the number without its unit.

Record request: inhibition value, item O=C(O[C@H]1CN[C@H](C#Cc2cc3ncnc(Nc4ccc(OCc5cccc(F)c5)c(Cl)c4)c3s2)C1)N1CCOCC1 26.9

Try the compound c1cnn2ncc(-c3ccnc(NCCCN4CCOCC4)n3)c2c1 8.31

Try the compound COc1ccc(-c2nn3ncccc3c2-c2ccnc(Nc3ccc(F)c(F)c3)n2)cc1 3.75

Try the compound CCCNc1cccc(-n2ncc3c(N/N=C/c4ccncc4)ncnc32)c1 3.81

Try the compound Cn1c(-c2nonc2N)nc2cnccc21 3.15

Try the compound Fc1ccc(Nc2nccc(-c3c(-c4ccc(C(F)(F)F)cc4)nn4ncccc34)n2)cc1F 3.77

Try the compound COc1cccc(Nc2nccc(-c3cnn4ncccc34)n2)c1 17

Try the compound COc1cc(N2CCN(C(C)C)CC2)ccc1Nc1nc(Nc2cccc(F)c2C(=O)O)c2cc[nH]c2n1 4.42

Try the compound CNC(=O)c1sc(-n2cnc3cc(OC)c(OC)cc32)cc1OCc1ccccc1C(F)(F)F 4.4

Try the compound COC(=O)Nc1nc2cc(Oc3ccc(NC(=O)Nc4ccccc4)cc3)ccc2[nH]1 0

----------
target: Serine/threonine-protein kinase Nek6 (Homo sapiens) (UniProt Q9HC98); conditions: at 1 µM;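 note: values are mean inhibition of NEK6 from the GSK PKIS screen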
Sequence (Q9HC98 whole entry): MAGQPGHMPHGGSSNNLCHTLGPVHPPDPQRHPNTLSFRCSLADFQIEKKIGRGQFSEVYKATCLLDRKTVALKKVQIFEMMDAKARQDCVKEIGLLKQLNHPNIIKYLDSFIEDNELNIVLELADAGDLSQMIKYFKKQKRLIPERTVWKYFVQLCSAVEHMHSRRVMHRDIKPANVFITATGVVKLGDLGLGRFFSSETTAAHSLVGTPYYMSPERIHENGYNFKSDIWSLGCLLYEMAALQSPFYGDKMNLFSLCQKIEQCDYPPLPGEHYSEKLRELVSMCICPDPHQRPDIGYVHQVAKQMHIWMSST
observed property: inhibition (%)
Express your answer in %, writing the number without its unit.

Record request: inhibition value, item c1ccc(-c2n[nH]cc2-c2ccnc(-c3ccc(OCCn4ccnc4)cc3)c2)nc1 4.21

Try the compound O=C(O[C@H]1CN[C@H](C#Cc2cc3ncnc(Nc4ccc(OCc5cccc(F)c5)c(Cl)c4)c3s2)C1)N1CCOCC1 2.74

Try the compound O=C(O[C@H]1CN[C@H](C#Cc2cc3ncnc(Nc4ccc5c(ccn5Cc5cc(F)ccc5F)c4)c3s2)C1)N1CCOCC1 1.23

Try the compound COc1cc(Nc2ncc(-c3ccccc3)o2)cc(OC)c1 1.56

Try the compound Fc1ccc(Nc2nccc(-c3c(-c4ccc(C(F)(F)F)cc4)nn4ncccc34)n2)cc1F 0.48

----------
biological target: Calcium/calmodulin-dependent protein kinase type II subunit alpha (Homo sapiens) (UniProt Q9UQM7); conditions: at 0.1 µM;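 note: reported values are averages (mean inhibition of CAMK2A)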
Sequence (Q9UQM7 whole entry): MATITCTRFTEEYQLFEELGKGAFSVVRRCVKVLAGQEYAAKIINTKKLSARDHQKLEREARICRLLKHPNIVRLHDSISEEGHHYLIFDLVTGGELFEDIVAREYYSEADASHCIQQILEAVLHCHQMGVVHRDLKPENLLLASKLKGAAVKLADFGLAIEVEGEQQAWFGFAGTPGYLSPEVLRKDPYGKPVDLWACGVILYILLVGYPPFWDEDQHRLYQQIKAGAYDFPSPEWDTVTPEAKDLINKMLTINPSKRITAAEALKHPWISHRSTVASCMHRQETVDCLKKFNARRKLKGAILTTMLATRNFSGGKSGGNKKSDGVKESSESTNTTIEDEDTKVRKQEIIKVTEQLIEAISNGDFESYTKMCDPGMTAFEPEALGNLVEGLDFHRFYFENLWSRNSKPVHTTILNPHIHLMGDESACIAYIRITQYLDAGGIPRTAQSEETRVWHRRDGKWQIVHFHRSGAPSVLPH
observed property: inhibition

Record request: inhibition value, item Fc1cccc(COc2ccc(Nc3ncncc3C#Cc3ccccc3)cc2Cl)c1 4.42%

Try the compound CCS(=O)(=O)c1ccc(OC)c(Nc2ncc(-c3cccc(F)c3)o2)c1 2.75%

Try the compound CC1=C(C(=O)Nc2ccc3[nH]ncc3c2)C(c2ccc(F)cc2)N=C(c2ccc(C(F)(F)F)nc2)N1 (centres undefined) 0.55%

Try the compound CCN1CCC(C(=O)Nc2n[nH]c3nnc(-c4cccc(F)c4F)cc23)CC1 -1.94%

Try the compound CC1=C(C(=O)Nc2ccc3[nH]nc(C)c3c2)C(c2ccc(C(F)(F)F)cc2)CC(=O)N1 (centres undefined) 1.45%

Try the compound Fc1ccc(Nc2nccc(-c3c(-c4ccc(C(F)(F)F)cc4)nn4ncccc34)n2)cc1F 3.04%

Try the compound Cc1cc(O)cc(C)c1/C=C/c1cncc(C(=O)OC(C)(C)C)c1 1.37%

Try the compound COc1cccc(-n2ncc3c(N/N=C/c4ccc(C(=O)NCCN(C)C)cc4)ncnc32)c1 2.13%

Try the compound CC1(C)CC(n2cnc(-c3ccc(F)cc3)c2-c2ccnc(N)n2)CC(C)(C)N1 -2.87%

----------
biological target: Cyclin-dependent kinase 4 (Homo sapiens) (UniProt P11802); details: at 1 µM;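 note: enzyme tested as the CDK4–cyclin D complex, with the value reported as mean percent inhibition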
Sequence (P11802 whole entry): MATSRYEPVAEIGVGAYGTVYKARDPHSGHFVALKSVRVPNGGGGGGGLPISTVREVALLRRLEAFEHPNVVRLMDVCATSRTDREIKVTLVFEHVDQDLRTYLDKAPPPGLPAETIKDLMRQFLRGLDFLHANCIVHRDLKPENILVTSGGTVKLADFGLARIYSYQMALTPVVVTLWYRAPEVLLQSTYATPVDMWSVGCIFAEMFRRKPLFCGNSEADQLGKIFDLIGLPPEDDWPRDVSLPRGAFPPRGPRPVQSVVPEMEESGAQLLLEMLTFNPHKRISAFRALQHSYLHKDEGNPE
Please provide measured inhibition for the entries that follow.
Express your answer in %, writing the number without its unit.

Recorded inhibition for NC(=O)c1ccc2c(-c3ccnc(NCCCO)n3)c(-c3ccc(F)cc3)nn2c1 with Cyclin-dependent kinase 4 (Homo sapiens) (UniProt P11802), please? 4.76

Try the compound Cc1cc(O)cc(C)c1/C=C/c1cncc(C(=O)OC(C)(C)C)c1 3.59

Try the compound CS(=O)(=O)Nc1ccc(-c2cc(-c3ccccc3)cc(C(N)=O)c2N)cc1 1.63

Try the compound O=C(Nc1n[nH]c2nnc(-c3cccnc3)cc12)C1CC1 56.1

Try the compound COc1cc2c(cc1Nc1nc(Nc3cccc(F)c3C(N)=O)c3cc[nH]c3n1)N(C(=O)CN1CCN(C(C)C)CC1)CC2 1.2

----------
target: Dual specificity tyrosine-phosphorylation-regulated kinase 1A (Homo sapiens) (UniProt Q13627); conditions: at 1 µM
Description: GSK_PKIS: DYRK1A mean inhibition at 1 uM [Nanosyn]
Grouping key: inhibition. Bins: zone 1 (below 4%), zone 2 (4% to below 7%), zone 3 (7% or more)

Class label required: CC1(C)CC(n2cnc(-c3ccc(F)cc3)c2-c2ccnc(N)n2)CC(C)(C)N1 zone 2

Try the molecule COc1cccc(-n2ncc3c(N/N=C/c4ccc(C(=O)NCCN(C)C)cc4)ncnc32)c1 zone 3

Try the molecule CN1CCC(n2cnc(-c3ccc(F)cc3)c2-c2ccnc(NCCO)n2)CC1 zone 1

Try the molecule COC(=O)Nc1nc2cc(Oc3ccc(NC(=O)Nc4ccccc4)cc3)ccc2[nH]1 zone 1

Try the molecule Cc1ccc(-c2cc3c(NC(=O)C4CC4)ncnc3o2)cc1 zone 3

Try the molecule CS(=O)(=O)CCNCc1ccc(-c2ccc3ncnc(Nc4ccc(OCc5ccccc5)cc4)c3c2)o1 zone 2

Try the molecule N#Cc1cccc(Nc2ncc(-c3ccccc3)o2)c1 zone 2

Try the molecule CS(=O)(=O)Nc1ccc(-c2cc(-c3ccccc3)cc(C(N)=O)c2N)cc1 zone 2

Try the molecule CC(C)c1ccc(-c2cc(-c3c[nH]nc3-c3ccccn3)ccn2)cc1 zone 1

Try the molecule CN(c1ccc(NC(=O)NCCN2CCOCC2)cc1)c1ccnc(Nc2ccc(CS(C)(=O)=O)cc2)n1 zone 1

Try the molecule COC(=O)Nc1nc2ccc(Oc3ccc(NC(=O)Nc4cc(C(F)(F)F)ccc4F)cc3)cc2s1 zone 1

Try the molecule Cc1nnc(-c2cccc(-c3ccc(C(=O)NCC4CC4)cc3)c2)o1 zone 2

Try the molecule Cc1cc(O)cc(C)c1/C=C/c1cncc(C(N)=O)c1 zone 2

Try the molecule CNC(=O)c1cncc(/C=C/c2ccccc2C)c1 zone 1

Try the molecule COc1cc(N2CCN(C(C)C)CC2)ccc1Nc1nc(Nc2cccc(F)c2C(=O)O)c2cc[nH]c2n1 zone 3

Try the molecule COc1c(C(N)=O)cc(-c2ccc(Cl)cc2)cc1-c1ccc(S(N)(=O)=O)cc1 zone 2

Try the molecule c1cnn2ncc(-c3ccnc(NCCCN4CCOCC4)n3)c2c1 zone 3

Try the molecule CC1=C(C(=O)Nc2ccc3[nH]nc(C)c3c2)C(c2ccc(C(F)(F)F)cc2)CC(=O)N1 (stereo unspecified) zone 3

Try the molecule Cc1c2ccc(N(C)c3ccnc(Nc4cccc(S(N)(=O)=O)c4)n3)cc2nn1C zone 1

Try the molecule O=C1Nc2ccccc2/C1=C1\CCc2cc(O)ccc21 zone 3

Try the molecule CC1=C(C(=O)Nc2ccc3[nH]ncc3c2)C(c2ccc(F)cc2)N=C(c2ccc(C(F)(F)F)nc2)N1 (stereo unspecified) zone 1

Try the molecule O=C(Nc1n[nH]c2nnc(-c3cccnc3)cc12)C1CC1 zone 3

Try the molecule CS(=O)(=O)CCNCc1ccoc1-c1ccc2ncnc(Nc3ccc(OCc4ccccc4)cc3)c2c1 zone 1

Try the molecule Cc1cc(O)cc(C)c1/C=C/c1cncc(C(=O)OC(C)(C)C)c1 zone 3

Try the molecule COc1cc2c(cc1Nc1nc(Nc3cccc(F)c3C(N)=O)c3cc[nH]c3n1)N(C(=O)CN1CCN(C(C)C)CC1)CC2 zone 3

Try the molecule COc1cccc(Nc2nccc(-c3cnn4ncccc34)n2)c1 zone 3

Try the molecule COc1ccc2ncn(-c3cc(O[C@H](C)c4ccccc4C(F)(F)F)c(C(N)=O)s3)c2c1 zone 1

Try the molecule NC(=O)c1ccc2c(-c3ccnc(NCCCO)n3)c(-c3ccc(F)cc3)nn2c1 zone 3

Try the molecule O=C(O[C@H]1CN[C@H](C#Cc2cc3ncnc(Nc4ccc5c(ccn5Cc5cc(F)ccc5F)c4)c3s2)C1)N1CCOCC1 zone 2

Try the molecule CS(=O)(=O)Nc1ccc(-c2ccc3c(NC(=O)C4CC4)n[nH]c3c2)cc1 zone 2

----------
molecular target: Serine/threonine-protein kinase Nek2 (Homo sapiens) (UniProt P51955); conditions: at 1 µM;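 note: reported values are mean percent inhibition of NEK2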
Sequence (P51955 whole entry): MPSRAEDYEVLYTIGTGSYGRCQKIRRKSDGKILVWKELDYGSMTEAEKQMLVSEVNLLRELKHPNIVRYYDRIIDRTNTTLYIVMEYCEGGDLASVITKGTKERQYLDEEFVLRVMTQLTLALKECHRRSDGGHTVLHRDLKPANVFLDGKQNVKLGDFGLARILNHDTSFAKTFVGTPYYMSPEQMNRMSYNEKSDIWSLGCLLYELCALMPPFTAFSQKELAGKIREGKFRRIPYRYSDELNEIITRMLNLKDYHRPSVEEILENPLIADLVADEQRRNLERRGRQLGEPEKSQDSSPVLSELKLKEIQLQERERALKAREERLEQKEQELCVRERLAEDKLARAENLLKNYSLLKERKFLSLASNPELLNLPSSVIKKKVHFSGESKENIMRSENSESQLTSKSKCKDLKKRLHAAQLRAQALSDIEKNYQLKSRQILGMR
Please provide measured inhibition for the entries that follow.
Express your answer in %, writing the number without its unit.

Record request: inhibition value, item CCS(=O)(=O)c1ccc(OC)c(Nc2ncc(-c3cccc(F)c3)o2)c1 7.08

Try the compound CCN1CCC(C(=O)Nc2n[nH]c3nnc(-c4cccc(F)c4F)cc23)CC1 -0.65

Try the compound CC1=C(C(=O)Nc2ccc3[nH]ncc3c2)C(c2ccc(F)cc2)N=C(c2ccc(C(F)(F)F)nc2)N1 (centres undefined) 2.65

Try the compound COc1cccc(Nc2nccc(-c3cnn4ncccc34)n2)c1 5.64

Try the compound CS(=O)(=O)Nc1ccc(-c2ccc3c(NC(=O)C4CC4)n[nH]c3c2)cc1 3.7

Try the compound Cc1c2ccc(N(C)c3ccnc(Nc4cccc(S(N)(=O)=O)c4)n3)cc2nn1C 19.9

Try the compound Cc1cc(O)cc(C)c1/C=C/c1cncc(C(N)=O)c1 1.69

Try the compound COc1cc(N2CCN(C(C)C)CC2)ccc1Nc1nc(Nc2cccc3ncccc23)c2cc[nH]c2n1 -0.48

Try the compound COc1cc2c(cc1Nc1nc(Nc3cccc(F)c3C(N)=O)c3cc[nH]c3n1)N(C(=O)CN1CCN(C(C)C)CC1)CC2 2.17
